Molecular target: T1, cynomolgus soluble urokinase plasminogen activator receptor (suPAR) (cynomolgus, UniProt Q9GK78 23-303, limits assumed)
T1 construct: Target antigen of the scFv off-rate screen; also called cynomolgus suPAR; cynomolgus uPAR
T1 sequence (Q9GK78 23-303 limits assumed): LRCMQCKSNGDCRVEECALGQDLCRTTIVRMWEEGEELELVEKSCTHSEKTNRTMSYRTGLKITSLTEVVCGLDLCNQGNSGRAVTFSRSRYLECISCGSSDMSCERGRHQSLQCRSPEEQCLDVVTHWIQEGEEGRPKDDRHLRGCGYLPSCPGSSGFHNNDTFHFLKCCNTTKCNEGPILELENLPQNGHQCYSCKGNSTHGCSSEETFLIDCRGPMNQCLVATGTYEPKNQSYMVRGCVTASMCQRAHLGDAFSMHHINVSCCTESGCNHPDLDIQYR
Experiment: BLI (Octet) off-rate screen of scFv clones
Measurement kind: log10 of koff (log10 of the value in s⁻¹)

- Binder: "suPAR_DB06_E10 (scFv, V domains shown) VH: QVQLVQSGAEVKKPGASVKVSCKASGDTFISYYMHWVRQAPGQGLEWMGWIDPENGNTIYDQKFQGRVTMTRDTSTSTVYMELSSLRSEDTAVYYCARGYDVDWFVYWGQGTLVTVSS VL: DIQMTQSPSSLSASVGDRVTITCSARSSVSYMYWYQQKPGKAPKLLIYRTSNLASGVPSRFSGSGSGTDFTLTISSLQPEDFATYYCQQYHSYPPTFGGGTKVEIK"
  log10 of koff: -3.57
- Binder: "suPAR_DB06_D02 (scFv, V domains shown) VH: QVQLVQSGAEVKKPGASVKVSCKASGYTFTSNYMHWVRQAPGQGLEWMGWIDHENGNTIYDQKFQGRVTMTRDTSTSTVYMELSSLRSEDTAVYYCARGYDVDWFVYWGQGTLVTVSS VL: DIQMTQSPSSLSASVGDRVTITCSASSSVSYMYWYQQKPGKAPKLLIYRTSNLASGVPSRFSGSGSGTDFTLTISSLQPEDFATYYCQQYHSYPPTFGGGTKVEIK"
  log10 of koff: -3.64
- Binder: "suPAR_DB06_E05 (scFv, V domains shown) VH: QVQLVQSGAEVKKPGASVKVSCKASGYTFTSHYIQWVRQAPGQGLEWMGWIDHENGNTIYDQKFQGRVTMTRDTSTSTVYMELSSLRSEDTAVYYCARGTDVDWFVYWGQGTLVTVSS VL: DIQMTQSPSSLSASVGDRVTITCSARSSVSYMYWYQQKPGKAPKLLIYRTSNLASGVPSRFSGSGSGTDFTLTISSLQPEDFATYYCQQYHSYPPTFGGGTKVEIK"
  log10 of koff: -3.04
- Binder: "suPAR_DB06_B10 (scFv, V domains shown) VH: QVQLVQSGAEVKKPGASVKVSCKASGDTLTNYYMHWVRQAPGQGLEWMGWIDHENGSTIYAQKFQGRVTMTRDTSTSTVYMELSSLRSEDTAVYYCARGYDVDWFVYWGQGTLVTVSS VL: DIQMTQSPSSLSASVGDRVTITCSARSSVSYMYWYQQKPGKAPKLLIYRTSNLQTGVPSRFSGSGSGTDFTLTISSLQPEDFATYYCQQYHSYPPTFGGGTKVEIK"
  log10 of koff: -3.23
- Binder: "suPAR_DB06_D11 (scFv, V domains shown) VH: QVQLVQSGAEVKKPGASVKVSCKASGYTFANYYVHWVRQAPGQGLEWVGMIDPGGGTTNYAQKFQGRVTMTRDTSTSTVYMELSSLRSEDTAVYYCARGYDVDWFVYWGQGTLVTVSS VL: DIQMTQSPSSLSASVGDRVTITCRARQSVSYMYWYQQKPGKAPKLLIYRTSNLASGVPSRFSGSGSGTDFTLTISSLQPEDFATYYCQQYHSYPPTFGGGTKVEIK"
  log10 of koff: -3.36
- Binder: "suPAR_DB06_C03 (scFv, V domains shown) VH: QVQLVQSGAEVKKPGASVKVSCKASGYTFTSYYMHWVRQAPGQGLEWMGWIDPNSGGTNYAQKFQGRVTMTRDTSTSTVYMELSSLRSEDTAVYYCARGYDVDWFVYWGQGTLVTVSS VL: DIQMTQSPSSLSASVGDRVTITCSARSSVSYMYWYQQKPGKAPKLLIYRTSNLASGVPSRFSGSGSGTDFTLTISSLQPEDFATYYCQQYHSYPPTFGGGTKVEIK"
  log10 of koff: -3.48
- Binder: "suPAR_DB06_D12 (scFv, V domains shown) VH: QVQLVQSGAEVKKPGASVKVSCKASGGTFSSYYMHWVRQAPGQGLEWMGWIDPENGNTIYAQKFQGRVTMTRDTSTSTVYMELSSLRSEDTAVYYCARGYDVDWFVYWGQGTLVTVSS VL: DIQMTQSPSSLSASVGDRVTITCSARQSVSYMYWYQQKPGKAPKLLIYRTSSLASGVPSRFSGSGSGTDFTLTISSLQPEDFATYYCQQYHSYPPTFGGGTKVEIK"
  log10 of koff: -3.72
- Binder: "suPAR_DB06_F06 (scFv, V domains shown) VH: QVQLVQSGAEVKKPGASVKVSCKASGGTFIGHYVHWVRQAPGQGLEWMGWIDHENGNTIYDQKFQGRVTMTRDTSTSTVYMELSSLRSEDTAVYYCARGYDVDWFVYWGQGTLVTVSS VL: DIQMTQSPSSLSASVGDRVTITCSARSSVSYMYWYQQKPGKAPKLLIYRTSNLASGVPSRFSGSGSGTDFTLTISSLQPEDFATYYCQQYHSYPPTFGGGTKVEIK"
  log10 of koff: -3.26
- Binder: "suPAR_DB06_G06 (scFv, V domains shown) VH: QVQLVQSGAEVKKPGASVKVSCKASGFTFTAYYMHWVRQAPGQGLEWMGWIDPENGNTIYAQKFQGRVTMTRDTSTSTVYMELSSLRSEDTAVYYCARGYDVDWFVYWGQGTLVTVSS VL: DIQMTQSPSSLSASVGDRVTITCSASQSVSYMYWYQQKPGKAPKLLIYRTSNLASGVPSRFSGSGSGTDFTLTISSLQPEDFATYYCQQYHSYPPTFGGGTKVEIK"
  log10 of koff: -6.28
- Binder: "suPAR_DB06_D10 (scFv, V domains shown) VH: QVQLVQSGAEVKKPGASVKVSCKASGYTFTSYYMHWVRQAPGQGLEWMGWIDPENGNTIYAQKFQGRVTMTRDTSTSTVYMELSSLRSEDTAVYYCARGYDVDWFVYWGQGTLVTVSS VL: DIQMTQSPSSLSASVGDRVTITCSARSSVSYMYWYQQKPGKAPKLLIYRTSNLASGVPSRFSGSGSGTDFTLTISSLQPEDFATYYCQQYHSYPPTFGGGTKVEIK"
  log10 of koff: -3.44
